Kindly supply the reported recombinant barcode read abundance (log10) values for the records listed here.
Test: recombinant barcode read abundance after kanamycin selection (control-corrected) (log10(CPM+1)); higher = more efficient recombination; sequences stand for … in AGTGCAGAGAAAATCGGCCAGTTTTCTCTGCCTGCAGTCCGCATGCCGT…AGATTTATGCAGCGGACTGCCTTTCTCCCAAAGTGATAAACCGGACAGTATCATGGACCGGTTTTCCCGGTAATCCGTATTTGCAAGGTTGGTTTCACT; site = the 11-nt target;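 note: IS621 recombinase and bridge RNA in Escherichia coli cells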
# print the numeric value only

So for TTGCCAACTTGGGTTCTAACCTGTTGCCT (site TTGCTAACTAG) , the logged recombinant barcode read abundance (log10) turned out to be 0.00831

recombinant barcode read abundance (log10) reading for CGGCGTCCTTGGGTTCTAACCTGTTGCTA (site CGGCGTCCTTA) : 0.452

Consider GCTCGTGCTTGGGTTCTAACCTGTTGCCT (site GCGCGTGCTAG) . Its measured recombinant barcode read abundance (log10) is 0.238

Input GGGGAGTCTTGGGTTCTAACCTGTTGCTT (site GGGGAGCCTCA) . Output recombinant barcode read abundance (log10): 0.16

Kindly note the recorded recombinant barcode read abundance (log10) for TTACAGGCTTGGGTTCTAACCTGTTGCCG (site GGCATCCCTTA) , which is 0.0374

The sequence listed as AGGTTTGCTTGGGTTCTAACCTGTTGCCT (site AGGTGTGCTAG) has a reported recombinant barcode read abundance (log10) of 0.018

Looking up GTCCCTCCTTGGGTTCTAACCTGTTGCGT (site GTCCCTCCTAC) , I found its recombinant barcode read abundance (log10) recorded as 2.74

Noted for TAAAGGGCTTGGGTTCTAACCTGTTGCCT (site TAAAGGGCTAG) : its recombinant barcode read abundance (log10) reads 0.4

Memo: ACGAGCGCTTGGGTTCTAACCTGTTGCCT (site ACGATCGCTAG) , reported recombinant barcode read abundance (log10): 0.0598

Reported recombinant barcode read abundance (log10) of ACTTAGACTTGGGTTCTAACCTGTTGCCG (site ACTTAGACTCG) : 1.29
